- System: Ubiquitin carboxyl-terminal hydrolase 28 (Homo sapiens)
- Experiment summary: Concentration-response biochemical assay confirming initial hits as inhibitors of ubiquitin-specific protease 28 (AID 1645866)
- Measurement setup: purified USP28, ubiquitin-rhodamine fluorescence, 30 min
Activity calls are given as the source filed them.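 The calls were made as follows: active = in confirmatory dose-response testing, peak deubiquitinase inhibition of 30% or more; inactive = the rest.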
Pick one and only one: active, inactive

Examples with answers:
Compound	Qualitative label
COc1cccc(NC(=O)c2ccc(-c3csc(C)n3)cc2)c1	active
CCc1ccc(NC(=O)CN=C2NS(=O)(=O)C(c3ccc(CC)cc3)=C2C)cc1	active
CC(=O)c1ccc(Cc2ncc(C(F)(F)F)cc2Cl)s1	active
COc1cc2c(cc1OC)C(COc1ccccc1OC)N(C(=O)c1ccc3ccccc3c1)CC2 (stereo not given)	inactive

Task: Could you check what this test reported for COc1cc(OC)c(NC(=O)Cn2c(=O)n(Cc3ccccc3Cl)c(=O)c3cc(OC)c(OC)cc32)cc1Cl ?
Output: active

Task: Here is the next compound: O=C(NCCCc1nc2ccccc2n1Cc1c(Cl)cccc1Cl)c1ccco1
Output: active

Task: Ok, now Cc1ccc(NC2=NC(c3ccco3)n3c(nc(C)cc3=O)N2)c(C)c1 (stereo not given)
Output: active
